Staph. 48N: reported MIC for various compounds.
Quick reminder: number only, in mg/L, skip the unit.

// query MIC value for entry "CC(=O)NC[C@H]1CN(c2ccc3nc(S(C)(=O)=O)sc3c2)C(=O)O1"
2

Repeat with CC(=O)NC[C@H]1CN(c2ccc3nc([S+]([O-])Cc4ccccc4)sc3c2)C(=O)O1 (stereo partly shown)
4

Repeat with CC(=O)NC[C@H]1CN(c2ccc3nc([S+](C)[O-])sc3c2)C(=O)O1 (stereo partly shown)
2

Repeat with "CC(=O)NC[C@H]1CN(c2ccc3nc(S(=O)(=O)Cc4ccccc4)sc3c2)C(=O)O1"
2

Repeat with "CC(=O)NC[C@H]1CN(c2ccc3nc(C)sc3c2)C(=O)O1"
1

Repeat with "CC(=O)NC[C@H]1CN(c2ccc3nc(C)oc3c2)C(=O)O1"
1

Repeat with "CSc1nc2ccc(N3C[C@H](CNC(C)=O)OC3=O)cc2s1"
1

Origin of measurements: patent US5529998A
